assay: Static PET image quantification of tissue uptake at 60 min (last frame of dynamic scan); format: in vivo; settings: female, athymic nude, mouse, tumor (U87MG xenograft), iv, 3.7 MBq, total radioactivity, U87MG xenograft, female athymic nude mice; tail-vein injection ~3.7 MBq; static PET image at 1 h; mean ± SD, n = 4/group; read-out: Tissue uptake, Tumor
Please provide measured tissue uptake at 1 h for the entries that follow.
Respond numerically; units are %ID/g and should not be typed.

// tissue uptake at 1 h lookup, molecule = N=C(N)NCCC[C@@H]1NC(=O)[C@H](CCCCNC(=O)CC[C@H](NC(=O)COCCOCCOCCNC(=S)Nc2ccc(C[C@H]3CN(CC(=O)O)CCN(CC(=O)O)CCN3CC(=O)O)cc2)C(=O)NCCCC[C@@H]2NC(=O)[C@@H](Cc3ccc(O)cc3)NC(=O)[C@H](CC(=O)O)NC(=O)CNC(=O)[C@H](CCCNC(=N)N)NC2=O)NC(=O)[C@@H](Cc2ccc(O)cc2)NC(=O)[C@H](CC(=O)O)NC(=O)CNC1=O [[^68Ga]Ga-NOTA-PRGD2, metal not drawn] , result: 2.42

The value of tissue uptake at 1 h measured for the molecule CC(F)C(=O)NCCOCCOCCOCC(=O)N[C@@H](CCC(=O)NCCCC[C@@H]1NC(=O)[C@@H](Cc2ccc(O)cc2)NC(=O)[C@H](CC(=O)O)NC(=O)CNC(=O)[C@H](CCCNC(=N)N)NC1=O)C(=O)NCCCC[C@@H]1NC(=O)[C@@H](Cc2ccc(O)cc2)NC(=O)[C@H](CC(=O)O)NC(=O)CNC(=O)[C@H](CCCNC(=N)N)NC1=O (some centres unmarked) [[^18F]FPPRGD2, reference compound] turned out to be 2.91
